protocol-text: Inhibition of peptide deformylase using N-formylmethionine-alanine-serineas substrate incubated for 10 min before substrate addition by PDF-FDH coupled assay
Criterion: pIC50 meeting or surpassing 8. Met: fulfilled. Not met: not fulfilled.

smiles-str	group-label
CCCC[C@@H](C(=O)N1CCC[C@H]1C(=O)OC(C)(C)C)[C@H](OS(=O)(=O)O)C(=O)NO	not fulfilled
CCCC[C@@H](C(=O)N1CCC[C@H]1C(=O)NC1CCCCC1)[C@H](O)C(=O)NO	fulfilled
CCCC[C@@H](C(=O)N1CCC[C@H]1C(=O)Nc1nc(C)c(C)s1)[C@@H](F)C(=O)NO	fulfilled
CCCC[C@@H](C(=O)N1CCC[C@H]1C(=O)N1CCN(c2ccccc2F)CC1)[C@H](O)C(=O)NO	fulfilled
Cc1cnc(NC(=O)[C@@H]2CCCN2C(=O)N(CCC(C)C)CC(=O)NO)s1	not fulfilled
CCCC[C@@H](C(=O)N1CCC[C@H]1C(=O)N1CCCC1)[C@H](O)C(=O)NO	not fulfilled
